test system: CT26 cells; test: MTS cell viability assay; format: cell-based, murine; conditions: Mus musculus, CT26, 48 h, concentrations are SN-38 concentration, n = 3, read-out: IC50
pIC50: −log10 of the molar value.
outcomeMeasure: pIC50

In plain terms, CCc1c2c(nc3ccc(O)cc13)-c1cc3c(c(=O)n1C2)COC(=O)[C@]3(O)CC [SN-38, 7‐ethyl‐10‐hydroxycamptothecin] has a documented pIC50 of ~6.70
